Where do the numbers come from? From patent US20250032625A1.

- target-of-assay: TEAD1 in NCI-H226 cells (Homo sapiens (Human))
- Sequence (P28347 whole entry): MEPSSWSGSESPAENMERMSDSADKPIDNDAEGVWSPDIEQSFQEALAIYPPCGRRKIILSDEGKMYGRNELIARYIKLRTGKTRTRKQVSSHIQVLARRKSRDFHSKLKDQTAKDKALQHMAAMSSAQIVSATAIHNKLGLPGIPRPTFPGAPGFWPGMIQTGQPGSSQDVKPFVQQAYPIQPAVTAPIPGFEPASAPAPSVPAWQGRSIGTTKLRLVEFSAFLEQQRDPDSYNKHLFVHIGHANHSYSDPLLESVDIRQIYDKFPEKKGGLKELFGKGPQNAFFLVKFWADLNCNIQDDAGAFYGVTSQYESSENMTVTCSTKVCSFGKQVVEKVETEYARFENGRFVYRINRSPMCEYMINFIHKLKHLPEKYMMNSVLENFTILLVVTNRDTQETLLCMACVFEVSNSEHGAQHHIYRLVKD
- procedure-summary: TEAD degradation in NCI-H226 cell line (immunofluorescence)
- Type: cell-based
- condition-set: 16 h incubation, read-out: DC50 NCI-H226 16 h
measure: DC50 (µM)
Report as a plain number; the unit µM is understood.

Reported DC50 for Cc1ncsc1-c1ccc(CNC(=O)[C@@H]2C[C@@H](O)CN2C(=O)[C@@H](NC(=O)COCCOCCOCCOCC(=O)NCCOCCOCCNC(=O)c2ccc3c(c2)c2cn(C)nc2n3-c2ccc(C(F)(F)F)cc2)C(C)(C)C)cc1 [Compound 3] : what is it?
3
